# measured_target: Dihydrofolate reductase (Mycobacterium tuberculosis) (UniProt P9WNX1)
# Sequence (P9WNX1 whole entry): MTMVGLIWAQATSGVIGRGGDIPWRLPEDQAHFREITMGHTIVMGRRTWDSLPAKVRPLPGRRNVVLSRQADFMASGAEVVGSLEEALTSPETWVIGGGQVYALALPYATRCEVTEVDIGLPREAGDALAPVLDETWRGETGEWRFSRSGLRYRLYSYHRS

{"columns": ["chemical_smiles", "IZ"],
 "data": [
  ["CCc1nc(N)nc(N)c1-c1cccc(Cl)c1", "5 mm"],
  ["Nc1nc(N)c(-c2ccc(Cl)cc2)c([C@H](O)[C@H](O)CO)n1", "5 mm"],
  ["Nc1nc(N)c(-c2ccc(Cl)c(Cl)c2)c(CCCCCO)n1", "9 mm"],
  ["Nc1nc(N)c(-c2ccc(Br)cc2)c([C@H](O)[C@H](O)CO)n1", "5 mm"],
  ["Nc1nc(N)c(-c2ccc(Br)cc2)c(CC[C@@H](O)[C@@H](O)CO)n1", "7 mm"],
  ["Nc1nc(N)c(-c2ccc(Cl)cc2)c(CC[C@@H](O)[C@@H](O)CO)n1", "9 mm"],
  ["Nc1nc(N)c(-c2ccc(Cl)cc2)c(CC[C@H](O)[C@@H](O)CO)n1", "7 mm"],
  ["Nc1nc(N)c(-c2ccc(Br)cc2)c(CC[C@H](O)[C@@H](O)CO)n1", "8 mm"],
  ["Nc1nc(N)c(-c2ccccc2)c(CC[C@H](O)[C@@H](O)CO)n1", "9 mm"],
  ["Nc1nc(N)c(-c2ccc(Cl)c(Cl)c2)c([C@H](O)[C@H](O)CO)n1", "8 mm"],
  ["Nc1nc(N)c(-c2ccccc2)c([C@H](O)[C@H](O)CO)n1", "5 mm"],
  ["Nc1nc(N)c(-c2ccccc2)c(CC[C@@H](O)[C@@H](O)CO)n1", "11 mm"],
  ["Nc1nc(N)c(-c2ccc(Cl)c(Cl)c2)c(CC[C@@H](O)[C@@H](O)CO)n1", "8 mm"],
  ["Nc1nc(N)c(-c2ccc(Br)cc2)c(CCCCCO)n1", "8 mm"],
  ["Nc1nc(N)c(-c2ccc(Cl)cc2)c(CCCCCO)n1", "8 mm"],
  ["Nc1ncc(-c2ccccc2)c(CCc2ccccc2)n1", "5 mm"],
  ["Nc1nc(N)c(-c2ccccc2)c(CCCCCO)n1", "7 mm"]
]}

These measurements were taken from ChEMBL document CHEMBL1143059.
